Biological target: purified rabbit lung ACE (Oryctolagus cuniculus, UniProt P12822)
Construct: The rabbit lung ACE (Sigma A6778) was reconstituted to a concentration of 1 unit/3 ml water; purchased Sigma A6778; host or cells: rabbit lung tissue
Sequence (P12822 34-1310): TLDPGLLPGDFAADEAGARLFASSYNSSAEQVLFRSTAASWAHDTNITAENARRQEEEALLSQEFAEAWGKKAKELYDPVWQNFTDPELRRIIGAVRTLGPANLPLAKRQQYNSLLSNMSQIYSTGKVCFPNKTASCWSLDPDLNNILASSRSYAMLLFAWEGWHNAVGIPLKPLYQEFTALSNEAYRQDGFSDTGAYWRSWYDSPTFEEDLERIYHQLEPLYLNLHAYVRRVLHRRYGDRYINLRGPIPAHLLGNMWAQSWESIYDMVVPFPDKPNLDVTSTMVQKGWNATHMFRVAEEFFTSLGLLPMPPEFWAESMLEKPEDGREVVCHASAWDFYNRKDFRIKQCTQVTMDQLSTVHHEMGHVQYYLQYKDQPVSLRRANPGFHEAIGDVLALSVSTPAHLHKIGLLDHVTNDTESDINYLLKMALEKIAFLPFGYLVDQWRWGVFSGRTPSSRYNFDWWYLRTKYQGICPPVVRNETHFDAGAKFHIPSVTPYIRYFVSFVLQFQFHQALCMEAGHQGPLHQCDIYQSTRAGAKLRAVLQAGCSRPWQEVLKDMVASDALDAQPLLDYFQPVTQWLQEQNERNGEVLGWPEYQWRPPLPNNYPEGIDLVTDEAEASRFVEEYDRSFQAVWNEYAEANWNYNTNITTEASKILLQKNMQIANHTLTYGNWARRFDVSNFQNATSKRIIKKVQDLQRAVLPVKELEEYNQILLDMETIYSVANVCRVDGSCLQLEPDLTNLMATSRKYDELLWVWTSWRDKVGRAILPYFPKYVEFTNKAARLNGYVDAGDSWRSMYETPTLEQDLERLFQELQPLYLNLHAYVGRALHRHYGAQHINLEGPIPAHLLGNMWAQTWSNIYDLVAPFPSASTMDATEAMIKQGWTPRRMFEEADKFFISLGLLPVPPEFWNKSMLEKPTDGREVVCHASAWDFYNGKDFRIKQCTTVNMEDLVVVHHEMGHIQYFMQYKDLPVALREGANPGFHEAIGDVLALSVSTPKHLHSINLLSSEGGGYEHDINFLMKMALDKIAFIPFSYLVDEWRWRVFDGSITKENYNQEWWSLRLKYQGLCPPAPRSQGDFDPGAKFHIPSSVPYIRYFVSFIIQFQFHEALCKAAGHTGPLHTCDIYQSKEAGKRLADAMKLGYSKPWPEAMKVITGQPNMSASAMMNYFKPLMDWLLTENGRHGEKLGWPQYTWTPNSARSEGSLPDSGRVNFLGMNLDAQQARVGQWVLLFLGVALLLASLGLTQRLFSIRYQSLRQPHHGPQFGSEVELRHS
Assay: In vitro ACE activity colorimetric assay (Fujirebio ACE color kit)
Assay type: biochemical
Conditions: free D(Cx)L ligands; rabbit lung ACE 3.3 mU/sample
Response field label takes y when IC50 is strictly below 20 nM and n in all other cases.

Example cases with answers are listed next.
| molecule | group |
| --- | --- |
| O=C(CCCCCN(Cc1ccccn1)Cc1ccccn1)NCCCCC(NC(CCc1ccccc1)C(=O)O)C(=O)N1CCCC1C(=O)O (centres unmarked) | n |
| NCCCC[C@H](N[C@@H](CCc1ccccc1)C(=O)O)C(=O)N1CCC[C@H]1C(=O)O [Lisinopril, reference compound] | y |
| O=C(CCCCN(Cc1ccccn1)Cc1ccccn1)NCCCCC(NC(CCc1ccccc1)C(=O)O)C(=O)N1CCCC1C(=O)O (centres unmarked) | n |

Moving on to the next molecule.
In: IC50 under 20 nM? Item: O=C(CCCN(Cc1ccccn1)Cc1ccccn1)NCCCCC(NC(CCc1ccccc1)C(=O)O)C(=O)N1CCCC1C(=O)O (centres unmarked)
Out: n

* * *

biological target: purified rabbit lung ACE (Oryctolagus cuniculus); construct: The rabbit lung ACE (Sigma A6778) was reconstituted to a concentration of 1 unit/3 ml water; purchased Sigma A6778; host or cells: rabbit lung tissue; assay: In vitro ACE activity colorimetric assay (Fujirebio ACE color kit); assay type: biochemical; conditions: Re-complexes; purified rabbit lung ACE
recorded_metric: IC50 (nM)
Respond numerically; units are nM and should not be typed.

In: Please look up its IC50: NCCCC[C@H](N[C@@H](CCc1ccccc1)C(=O)O)C(=O)N1CCC[C@H]1C(=O)O [Lisinopril, reference compound]
Out: 4

All figures here come from patent US20080213172A1.
